Data origin: ChEMBL document CHEMBL1201862

# System: NCI-H460
# test_protocol: NCI tumour cell line growth inhibition, 48 h
Calls of active or inactive are those of the source. Cut-off read from the data, not from the text of the source: active = GI50 up to about 1.1 µM and inactive = higher.
experimental_readout: GI50

Some solved entries appear below for comparison.
molecule	recorded_value
CC1=C(NC(=O)C(=O)NNC(=O)c2ccncc2)C(=O)c2ccccc2C1=O	4.44 µM (inactive)
Cc1cc(N(CCC#N)CCC#N)ccc1C(/N=N/c1ccc(Cl)cc1)=N\NC(=O)c1ccccc1	39.7 µM (inactive)
NC12Oc3cc(O)cc(O)c3C1(c1ccc(Cl)cc1)c1c(O)cc(O)cc1O2 (configuration not stated)	34.6 µM (inactive)
COc1ccc(S(=O)(=O)NNS(C)(=O)=O)cc1OC	> 100 µM (inactive)
O=C(CCC(=O)Nc1cccc(Cl)c1)CC(=O)c1ccc(F)cc1	> 100 µM (inactive)
CC(=O)C1C(=O)C(=O)N(c2ccc([N+](=O)[O-])cc2)C1=O (configuration not stated)	> 100 µM (inactive)

Asked: Param request: GI50 | system NCI-H460 | item CC1SC2=NC3=C(c4ccccc4C3=O)C(c3ccc(F)cc3)N2C1=O (configuration not stated)
Given back: > 100 µM (inactive)
